I'd be grateful if you could share measured Intact tracer (%) for these entries.
Test: Ex vivo metabolite analysis (plasma and brain) in healthy male Wistar rats
Set-up: species or system rat
Conditions: rat brain, 45 min p.i.
Method: In vivo stability of analogues [^11C]1–3 and [^11C]SMW139 was assessed in healthy male Wistar rats at 15 and 45 minutes after injection of 30–40 MBq of formulated tracer. […] Despite optimisation of the extraction method, the percentage of total radioactivity that could be extracted from brain homogenates was not optimal for all four compounds (59 ± 6% for [^11C]1; 58 ± 7% for [^11C]2; 61 ± 4% for [^11C]3; 62 ± 3% for [^11C]SMW139). […]
Numeric answer only, unit % assumed.

Intact tracer (%) recorded for this molecule, [11CH3]Oc1ccc(Cl)c(C(=O)NCC23CC4(F)CC(F)(CC(F)(C4)C2)C3)c1 [[^11C]SMW139] , is 66

Intact tracer (%) recorded for this molecule, [11CH3]Oc1ccc(Cl)c(C(=O)NCC23CC4CC(CC(F)(C4)C2)C3)c1 [[^11C]2] , is 32

Intact tracer (%) recorded for this molecule, [11CH3]Oc1ccc(Cl)c(C(=O)NCC23CC4CC(F)(CC(F)(C4)C2)C3)c1 [[^11C]3] , is 32

Intact tracer (%) recorded for this molecule, [11CH3]Oc1ccc(Cl)c(C(=O)NCC23CC4CC(CC(C4)C2)C3)c1 [[^11C]1] , is 76

Sourced from paper PMC5920098
